Reported Antagonism Volume, Result 1 values for the following molecules.
tested on: HIV-1IIIB; test: Drug combination anti-HIV-1 cytoprotection assay (MacSynergy II) in CEM-SS cells infected with HIV-1IIIB; assay type: cell-based; settings: in combination with Compound A, 95% confidence interval, assay 1
Quick note: unit goes after the number.

// below: answered molecules
molecule	Antagonism Volume, Result 1
CC(C)(C)NC(=O)[C@@H]1CN(Cc2cccnc2)CCN1C[C@@H](O)C[C@@H](Cc1ccccc1)C(=O)N[C@H]1c2ccccc2C[C@H]1O [IDV, indinavir]	−7 μM^2%
Cc1cn([C@H]2C[C@H](N=[N+]=[N-])[C@@H](CO)O2)c(=O)[nH]c1=O [AZT, zidovudine]	−21 μM^2%

Antagonism Volume, Result 1 in this record for O=C1Nc2ccc(Cl)cc2[C@@](C#CC2CC2)(C(F)(F)F)O1 [EFV, efavirenz] : −9 μM^2%

Sure, the documented Antagonism Volume, Result 1 for C[C@H](Cn1cnc2c(N)ncnc21)OCP(=O)(O)O [PMPA, tenofovir] is −23 μM^2%

// recorded Antagonism Volume, Result 1 for Cc1c(O)cccc1C(=O)N[C@@H](CSc1ccccc1)[C@H](O)CN1C[C@H]2CCCC[C@H]2C[C@H]1C(=O)NC(C)(C)C [NFV, nelfinavir] : −3 μM^2%
